TARGET SYSTEM: UniProt:Q96P20
Sequence (Q96P20 whole entry): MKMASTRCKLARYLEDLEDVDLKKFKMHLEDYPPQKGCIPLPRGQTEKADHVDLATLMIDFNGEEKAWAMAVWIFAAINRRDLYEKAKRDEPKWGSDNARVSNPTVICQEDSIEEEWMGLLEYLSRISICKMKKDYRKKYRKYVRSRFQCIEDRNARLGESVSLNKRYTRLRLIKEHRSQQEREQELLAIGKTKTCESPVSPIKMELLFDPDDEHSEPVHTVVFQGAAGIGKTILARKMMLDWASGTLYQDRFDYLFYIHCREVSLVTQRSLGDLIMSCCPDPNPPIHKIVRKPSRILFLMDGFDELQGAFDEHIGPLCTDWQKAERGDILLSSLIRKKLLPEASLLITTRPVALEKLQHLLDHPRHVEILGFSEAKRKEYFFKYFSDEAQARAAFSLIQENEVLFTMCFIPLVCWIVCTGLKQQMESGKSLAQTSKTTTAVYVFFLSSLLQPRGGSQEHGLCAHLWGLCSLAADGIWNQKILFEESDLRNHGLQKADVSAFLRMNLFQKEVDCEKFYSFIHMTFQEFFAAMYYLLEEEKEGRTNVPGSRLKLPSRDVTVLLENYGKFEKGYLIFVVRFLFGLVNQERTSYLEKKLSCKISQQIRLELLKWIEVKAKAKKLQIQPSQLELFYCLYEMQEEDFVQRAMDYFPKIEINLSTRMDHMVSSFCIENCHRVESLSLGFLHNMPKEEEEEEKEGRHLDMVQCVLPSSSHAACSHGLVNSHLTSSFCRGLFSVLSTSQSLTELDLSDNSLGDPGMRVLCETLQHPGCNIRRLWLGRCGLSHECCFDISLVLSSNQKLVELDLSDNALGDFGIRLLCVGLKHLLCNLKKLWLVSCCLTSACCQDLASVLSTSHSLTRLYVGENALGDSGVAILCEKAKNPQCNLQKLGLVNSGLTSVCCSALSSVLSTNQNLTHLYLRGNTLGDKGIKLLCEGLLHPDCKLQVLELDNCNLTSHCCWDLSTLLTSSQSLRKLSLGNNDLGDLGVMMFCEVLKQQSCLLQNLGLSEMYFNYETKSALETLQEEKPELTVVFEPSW
ASSAY NOTES: THP-1 cells pyroptosis assay (LPS + nigericin, resazurin readout)
Type: cell-based
Parameters: Seed THP-1 cells (25,000 cells/well) containing 1.0 μg/ml LPS; host or cells: THP-1 cells
SETUP CONDITIONS: NLRP3 inhibitory activity, 1.0 μg/ml LPS, 3 hrs compound, nigericin 5 μM 1 hr
READOUT NAME: IC50

CC(C)c1cc(C#N)cc2c1CC(=O)NS(=O)(=O)c1cnn(c1)C(C)(C)COc1cc-2ccn1 [Example 46] | 1000 to 5000 nM

For each of the molecules below, note its IC50.
1. CC(C)c1cccc2c1CC(=O)NS(=O)(=O)c1cn(cn1)C(C)(C)COc1cc-2ccn1 [Example 33]
2. CC(C)c1cc(OC(F)F)cc2c1CC(=O)NS(=O)(=O)c1cnn(c1)C(C)(C)COc1cc-2ccn1 [Example 47]
3. CC(C)c1c(F)c(C#N)cc2c1CC(=O)NS(=O)(=O)c1cnn(c1)C(C)(C)COc1cc-2ccn1 [Example 48]

A:
500 to 1000 nM
100 to 500 nM
1000 to 5000 nM

For each of the molecules below, note its IC50.
1. CC(C)c1cccc2c1CC(=O)NS(=O)(=O)c1cccc(c1)CCOc1cc-2ccn1 [Example 7]
2. Cc1nn2cc1S(=O)(=O)NC(=O)Cc1c(cccc1C(C)C)-c1ccnc(c1)OCC2(C)C [Example 24]
3. CC(C)c1cccc2c1CC(=O)NS(=O)(=O)c1cc(cc(C(C)(C)O)c1)CCOc1cc-2ccn1 [Example 11]
4. CC(C)c1cccc2c1CC(=O)NS(=O)(=O)c1nn(cc1F)C(C)(C)CCOc1cc-2ccn1 [Example 31]

A:
1. 1000 to 5000 nM
2. 500 to 1000 nM
3. 100 to 500 nM
4. 1000 to 5000 nM

Data origin, for the record: patent US20220389031A1
